This collection of values is drawn from PubChem BioAssay (Tox21).

- experiment: qHTS RealTime-Glo MT Cell Viability Assay in HEK293 cells - 32 hour (AID 1224868); also: nearly all actives have a fitted effect of over 50% in size
- assay.context: RealTime-Glo luminescence; series mostly up to 76.8 µM
Records with an inconclusive call do not appear. Activity calls are given as the source filed them. Calls follow the shape of the dose curve; as a rule, active = well fitted cell-killing curve with a large enough effect in the repeat runs; inconclusive = weak or mixed curves, or effect the other way; inactive = flat fitted curve, though single readings scatter.
Choose the fitting class; nothing outside active, inactive is accepted.

// below: answered molecules
{"input.smiles": "O=C(Cl)c1cccc(C(=O)Cl)c1", "group.label": "inactive"}
{"input.smiles": "Cc1cccc([N+](=O)[O-])c1C(=O)O", "group.label": "inactive"}
{"input.smiles": "Cc1cc(C2(c3cc(C)c(O)cc3C)OS(=O)(=O)c3ccccc32)c(C)cc1O", "group.label": "inactive"}
{"input.smiles": "O", "group.label": "inactive"}
{"input.smiles": "O=C(O[C@@H]1Cc2c(O)cc(O)cc2O[C@@H]1c1cc(O)c(O)c(O)c1)c1cc(O)c(O)c(O)c1", "group.label": "active"}

Prompt line: Hi, sorry to bother you, what did the test record for CC(C)(C)NC(=O)[C@@H]1CN(Cc2cccnc2)CCN1C[C@@H](O)C[C@@H](Cc1ccccc1)C(=O)N[C@H]1c2ccccc2C[C@H]1O ?
Response line: inactive
